- System: SF-268 CNS
- assayComment: NCI tumour cell line growth inhibition, 48 h; in the data active means GI50 below about 0.43 µM; inactive means the rest
# output must be one of True = active, False = inactive

Here's what some known entries look like.
[
  {
    "compound": "Cn1cc(-c2ccc(-c3cn(C)c4ccc(Cl)cc34)s2)c2cc(Cl)ccc21",
    "studyTarget": "SF-268 CNS",
    "classLabel": "False"
  },
  {
    "compound": "CCCc1cc(=O)n2c(C(=O)Nc3ccccc3OC)c(C(=O)Nc3ccc(F)cc3)sc2n1",
    "studyTarget": "SF-268 CNS",
    "classLabel": "False"
  },
  {
    "compound": "CC(C)C[C@H](NC(=O)[C@@H](O)[C@H](N)Cc1ccc([N+](=O)[O-])cc1)C(=O)O",
    "studyTarget": "SF-268 CNS",
    "classLabel": "False"
  },
  {
    "compound": "COc1cc(C2CC(c3ccc(N(C)C)cc3)=NN2C(C)=O)cc(OC)c1OC (stereo not given)",
    "studyTarget": "SF-268 CNS",
    "classLabel": "False"
  },
  {
    "compound": "Cc1ccc2c(c1)C(=O)c1c-2n(CCCBr)c(=O)c2cc([N+](=O)[O-])ccc12",
    "studyTarget": "SF-268 CNS",
    "classLabel": "False"
  },
  {
    "compound": "Nc1cc(N)c2nc(-c3ccccc3)c(NCc3ccc(F)cc3)nc2c1",
    "studyTarget": "SF-268 CNS",
    "classLabel": "False"
  }
]

Q: GET /call?item= CCN(CC)c1ccc(C(=N)c2ccc(N(C)C)cc2)cc1 returns the recorded outcome of this test.
A: True

Q: Just curious, what result did Nc1c(C(=O)Nc2ccccc2)sc2nc3c(cc12)CN(Cc1ccccc1)CC3 get here?
A: False

###

- Test system: HOP-62 NSCLC
- assayComment: NCI tumour cell line growth inhibition, 48 h
recordedMetric: GI50

[
  {
    "molecule": "O=C(CCCSc1nc(-c2ccccc2)cc(-c2ccc(Cl)cc2)n1)NO",
    "GI50": "1040 nM"
  },
  {
    "molecule": "COc1ccc(-c2nn(-c3cccc(Cl)c3)cc2-c2cc(-c3ccccc3)nc(N)n2)cc1",
    "GI50": "2500 nM"
  },
  {
    "molecule": "Cn1cc(-c2ccc(-c3cn(C)c4ccc(Cl)cc34)s2)c2cc(Cl)ccc21",
    "GI50": "> 100000 nM"
  },
  {
    "molecule": "CC(C)c1ccc(Nc2nccc(-c3cnn4ncccc34)n2)cc1",
    "GI50": "563 nM"
  }
]

Q: What value of measured GI50 is listed for FC(F)(F)c1ccc(-c2cnc(Cl)nc2NCc2cc(C(F)(F)F)cc(C(F)(F)F)c2)cc1 ?
A: 3860 nM

Q: Recorded GI50 for CCCOc1nc(SCCC)nc2c1cnn2-c1ccccc1 , please?
A: > 100000 nM

Q: So what's the measured GI50 for this one? COc1cc2c3c(n(C)c(=O)c2cc1OC)-c1cc2c(cc1/C3=C\C(N)CN)OCO2 (centres undefined)
A: 1290 nM

Q: Dear colleague, I am looking for the recorded GI50 of the following molecule: CCOc1cc2c(cc1O)/C(=N/NS(=O)(=O)c1ccc(C)cc1)C[C@@H]1[C@@H]2CC[C@]2(C)[C@@H](O)CC[C@@H]12
A: 5140 nM
